STUDY_SYSTEM: human H1R (Homo sapiens)
Construct: expressed in transfected cells; host or cells: CHO cells
ASSAY: Ca2+ mobilization assay on human H1R-expressing CHO cells
Assay type: cell-based
TEST_SETTINGS: Gaddum equation, shift in histamine EC25 with 1 μM antagonist; mean ± SEM, four experiments; read-out: pKB (converted)
Square brackets hold non-standard residues; d marks the D form. Peptide text beside a SMILES is read from it. * marks the point of attachment. X1 = O=C(COc1ccc(/C=C/C2=[N+]3C(=Cc4ccc(-c5cccs5)n4[B-]3(F)F)C=C2)cc1)*; Propanoyl(3-Pip(4-O-2-BnPh)) = O=C(CCN1CCC(Oc2ccccc2Cc2ccccc2)CC1)*; βAla = NCCC(=O)O
QUANTITY_KIND: Kb (nM)
The response must be a number in nM with no trailing unit.

Query: Look up Kb with human H1R (Homo sapiens) for this compound: C[C@H](NC(=O)[C@H](C)NC(=O)[C@H](Cc1ccccc1)NC(=O)CCN1CCC(Oc2ccccc2Cc2ccccc2)CC1)C(=O)NCCC(=O)N[C@@H](CCCCNC(=O)COc1ccc(/C=C/C2=[N+]3C(=Cc4ccc(-c5cccs5)n4[B-]3(F)F)C=C2)cc1)C(N)=O [Compound 31k] ({Propanoyl(3-Pip(4-O-2-BnPh))}-FAA[βAla]K(X1)-NH2)
Response: 2.57

----------
Recorded log10 Kd, one value per entry.
STUDY_SYSTEM: Nluc-H1R (Homo sapiens)
Sequence (P35367 whole entry): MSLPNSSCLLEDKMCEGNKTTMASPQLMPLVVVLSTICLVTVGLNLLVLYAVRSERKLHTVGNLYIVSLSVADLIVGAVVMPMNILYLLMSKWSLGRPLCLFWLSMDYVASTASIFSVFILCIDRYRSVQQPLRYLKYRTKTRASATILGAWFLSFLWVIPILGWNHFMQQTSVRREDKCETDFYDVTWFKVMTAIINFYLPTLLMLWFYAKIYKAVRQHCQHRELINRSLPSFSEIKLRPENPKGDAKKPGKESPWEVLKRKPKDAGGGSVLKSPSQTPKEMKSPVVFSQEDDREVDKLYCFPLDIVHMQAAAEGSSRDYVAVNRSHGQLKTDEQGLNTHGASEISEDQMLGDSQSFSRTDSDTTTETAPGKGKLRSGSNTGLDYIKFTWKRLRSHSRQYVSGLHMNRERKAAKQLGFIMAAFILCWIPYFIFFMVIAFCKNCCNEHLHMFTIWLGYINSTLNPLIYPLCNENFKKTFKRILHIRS
ASSAY: NanoBRET saturation binding assay on Nluc-H1R expressing HEK293T cells
Set-up: expressed in transfected cells
TEST_SETTINGS: saturation binding curves, whole HEK293T cells
Square brackets hold non-standard residues; d marks the D form. Side chains are listed from the residue outwards. Peptide text beside a SMILES is read from it. * marks the point of attachment. X1 = O=C(COc1ccc(/C=C/C2=[N+]3C(=Cc4ccc(-c5cccs5)n4[B-]3(F)F)C=C2)cc1)*; Propanoyl(3-Pip(4-O-2-BnPh)) = O=C(CCN1CCC(Oc2ccccc2Cc2ccccc2)CC1)*; X2 = O=C(CCC1=[N+]2C(=Cc3ccc(-c4cccs4)n3[B-]2(F)F)C=C1)*; Ahx = NCCCCCC(=O)O; βAla = NCCC(=O)O
Could you please treat all values as log10 of Kd in nM?

Completed entries (count: 5):
CC(C)[C@H](NC(=O)CCN1CCC(Oc2ccccc2Cc2ccccc2)CC1)C(=O)N[C@@H](CCC(=O)O)C(=O)N[C@@H](CC(N)=O)C(=O)N[C@@H](Cn1cc(COc2ccc(/C=C/C3=[N+]4C(=Cc5ccc(-c6cccs6)n5[B-]4(F)F)C=C3)cc2)nn1)C(N)=O [Compound 22c]	2.21
CC(C)C[C@H](NC(=O)CCN1CCC(Oc2ccccc2Cc2ccccc2)CC1)C(=O)N[C@@H](CO)C(=O)N[C@@H](CC(N)=O)C(=O)NCCC(=O)N[C@@H](CCCCNC(=O)COc1ccc(/C=C/C2=[N+]3C(=Cc4ccc(-c5cccs5)n4[B-]3(F)F)C=C2)cc1)C(N)=O [Compound 31j] ({Propanoyl(3-Pip(4-O-2-BnPh))}-LSN[βAla]K(X1)-NH2)	0.78
CC(C)[C@H](NC(=O)CCN1CCC(Oc2ccccc2Cc2ccccc2)CC1)C(=O)N[C@@H](CO)C(=O)N[C@@H](CC(N)=O)C(=O)NCCC(=O)N[C@@H](CCCCNC(=O)CCC1=[N+]2C(=Cc3ccc(-c4cccs4)n3[B-]2(F)F)C=C1)C(N)=O [Compound 38c] ({Propanoyl(3-Pip(4-O-2-BnPh))}-VSN[βAla]K(X2)-NH2)	2.32
CC(C)[C@H](NC(=O)CCN1CCC(Oc2ccccc2Cc2ccccc2)CC1)C(=O)N[C@@H](CO)C(=O)N[C@@H](CC(N)=O)C(=O)NCCC(=O)N[C@@H](CCCCNC(=O)COc1ccc(/C=C/C2=[N+]3C(=Cc4ccc(-c5cccs5)n4[B-]3(F)F)C=C2)cc1)C(N)=O [Compound 31a] ({Propanoyl(3-Pip(4-O-2-BnPh))}-VSN[βAla]K(X1)-NH2)	0.60
C[C@@H](O)[C@H](NC(=O)CCN1CCC(Oc2ccccc2Cc2ccccc2)CC1)C(=O)N[C@@H](CO)C(=O)N[C@@H](Cc1ccc(O)cc1)C(=O)NCCC(=O)N[C@@H](CCCCNC(=O)COc1ccc(/C=C/C2=[N+]3C(=Cc4ccc(-c5cccs5)n4[B-]3(F)F)C=C2)cc1)C(N)=O [Compound 31g] ({Propanoyl(3-Pip(4-O-2-BnPh))}-TSY[βAla]K(X1)-NH2)	0.85

Query: Hello, I am looking for reported log10 Kd with Nluc-H1R (Homo sapiens) for CC(C)[C@H](NC(=O)CCN1CCC(Oc2ccccc2Cc2ccccc2)CC1)C(=O)N[C@@H](C)C(=O)N[C@@H](Cc1ccc(O)cc1)C(=O)NCCC(=O)N[C@@H](CCCCNC(=O)COc1ccc(/C=C/C2=[N+]3C(=Cc4ccc(-c5cccs5)n4[B-]3(F)F)C=C2)cc1)C(N)=O [Compound 31f] ({Propanoyl(3-Pip(4-O-2-BnPh))}-VAY[βAla]K(X1)-NH2) . Could you help?
Response: 1.04

Query: API: value(readout=log10 Kd, system=Nluc-H1R (Homo sapiens)) for record C[C@H](NC(=O)CCN(C)CC/C=C1\c2ccccc2COc2ccccc21)C(=O)N[C@@H](C)C(=O)N[C@@H](C)C(=O)NCCC(=O)N[C@@H](CCCn1cc(COc2ccc(/C=C/C3=[N+]4C(=Cc5ccc(-c6cccs6)n5[B-]4(F)F)C=C3)cc2)nn1)C(N)=O [Compound 28d]
Response: 0.70

Query: Checklist item: log10 Kd tested on Nluc-H1R (Homo sapiens), entry CC(C)[C@H](NC(=O)CCN1CCC(Oc2ccccc2Cc2ccccc2)CC1)C(=O)N[C@@H](CO)C(=O)N[C@@H](CC(N)=O)C(=O)NCCC(=O)N[C@@H](CCCCNC(=O)CCCCCNC(=O)COc1ccc(/C=C/C2=[N+]3C(=Cc4ccc(-c5cccs5)n4[B-]3(F)F)C=C2)cc1)C(N)=O [Compound 38a] ({Propanoyl(3-Pip(4-O-2-BnPh))}-VSN[βAla]K([Ahx-X1])-NH2) , value?
Response: 1.26

Query: Query log10 Kd on Nluc-H1R (Homo sapiens) for CC[C@H](C)[C@H](NC(=O)CCN1CCC(Oc2ccccc2Cc2ccccc2)CC1)C(=O)N[C@@H](CO)C(=O)N[C@@H](CC(N)=O)C(=O)NCCC(=O)N[C@@H](CCCCNC(=O)COc1ccc(/C=C/C2=[N+]3C(=Cc4ccc(-c5cccs5)n4[B-]3(F)F)C=C2)cc1)C(N)=O [Compound 31i] ({Propanoyl(3-Pip(4-O-2-BnPh))}-ISN[βAla]K(X1)-NH2)
Response: 0.70

----------
STUDY_SYSTEM: UniProtKB P35367
ASSAY: NanoBRET saturation binding assay on Nluc-H1R expressing HEK293T cells
Parameters: expressed in transfected cells
TEST_SETTINGS: saturation binding curves, whole HEK293T cells
Excerpt: Total and non-specific saturation binding curves from NanoBRET saturation binding assay were fitted simultaneously using eq 1: [drawing 4] 1 where Bmax is the maximal specific binding, [B] is the concentration of fluorescent ligand in nM, KD is the equilibrium dissociation constant in nM, M is the slope of the non-specific component, and C is the intercept with the Y axis.
Square brackets hold non-standard residues; d marks the D form. Peptide text beside a SMILES is read from it. * marks the point of attachment. X1 = O=C(COc1ccc(/C=C/C2=[N+]3C(=Cc4ccc(-c5cccs5)n4[B-]3(F)F)C=C2)cc1)*; Propanoyl(3-Pip(4-O-2-BnPh)) = O=C(CCN1CCC(Oc2ccccc2Cc2ccccc2)CC1)*; X3 = Cc1cc(C)n2c1C=C1C=CC(/C=C/c3ccc(OCC(=O)*)cc3)=[N+]1[B-]2(F)F; βAla = NCCC(=O)O
QUANTITY_KIND: pKd
Give only the number. pKd is defined as minus log10 of concentration in molar units.

Cc1cc(C)n2c1C=C1C=CC(/C=C/c3ccc(OCC(=O)NCCCC[C@H](NC(=O)CCNC(=O)[C@H](CC(N)=O)NC(=O)[C@H](CO)NC(=O)[C@@H](NC(=O)CCN4CCC(Oc5ccccc5Cc5ccccc5)CC4)C(C)C)C(N)=O)cc3)=[N+]1[B-]2(F)F [Compound 38b] ({Propanoyl(3-Pip(4-O-2-BnPh))}-VSN[βAla]K(X3)-NH2)	7.18
C[C@H](NC(=O)[C@@H](NC(=O)CCN1CCC(Oc2ccccc2Cc2ccccc2)CC1)[C@@H](C)O)C(=O)N[C@@H](CC(N)=O)C(=O)NCCC(=O)N[C@@H](CCCCNC(=O)COc1ccc(/C=C/C2=[N+]3C(=Cc4ccc(-c5cccs5)n4[B-]3(F)F)C=C2)cc1)C(N)=O [Compound 31d] ({Propanoyl(3-Pip(4-O-2-BnPh))}-TAN[βAla]K(X1)-NH2)	8.30

Could you now consider this next compound?
Query: Quick one: pKd for CC(C)[C@H](NC(=O)CCN1CCC(Oc2ccccc2Cc2ccccc2)CC1)C(=O)N[C@@H](CO)C(=O)N[C@@H](CC(N)=O)C(=O)N[C@@H](Cn1cc(COc2ccc(/C=C/C3=[N+]4C(=Cc5ccc(-c6cccs6)n5[B-]4(F)F)C=C3)cc2)nn1)C(N)=O [Compound 22a] ?
Response: 7.55
